target: Low molecular weight phosphotyrosine protein phosphatase (Homo sapiens); type: functional; settings: read-out: IC50_Mean;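 note: Dose-response confirmation assay measuring inhibition of LMPTP enzyme activity by fluorescence intensity read-out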
Sequence (P24666 whole entry): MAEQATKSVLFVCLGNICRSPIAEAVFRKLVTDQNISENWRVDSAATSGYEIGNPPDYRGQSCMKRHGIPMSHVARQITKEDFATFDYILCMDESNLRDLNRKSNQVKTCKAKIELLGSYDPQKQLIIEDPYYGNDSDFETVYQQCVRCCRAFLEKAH
The source made the active and inactive calls. Cut-off read from the data, not from the text of the source: active = IC50 of 20 µM or less and inactive = more.
Select the correct class. Options are active, inactive and nothing else.

Answered examples (4):
# substance.smiles, group.label
rows = [
    ("Nc1ccc2[nH]c(CCCCCCCCc3nc4cc(N)ccc4[nH]3)nc2c1", "active"),
    ("O=C(Nc1ccc(S(=O)(=O)Nc2nccs2)cc1)c1nn(-c2ccc(F)cc2)ccc1=O", "inactive"),
    ("Cc1cc(N2CCN(C(=O)Nc3ccccc3C#N)CC2)c2ccccc2n1", "inactive"),
    ("CCSc1nnc(NC(=O)CSc2sc3c(O)cc(=O)[nH]c3c2C#N)s1", "inactive"),
]

Let us examine a further case.
### Prompt Please let me know the test result on file for CN1/C(=C/C=C/c2n(C)c3cc([N+](=O)[O-])c([N+](=O)[O-])cc3[n+]2C)C(C)(C)c2ccccc21 .
### Response inactive
